assay-comment: folding stability dG unfold from trypsin proteolysis; higher = more stable
parameter-measured: folding stability dG unfold

Recorded results for 3 sequences are shown here.
- ordered-residues: "SAGGSAGGMTVTTTSSFDPTSPTANTLTTTYVSPEELKRPEIQALPDLPGKTLEFPTTTPVPPPSAGGSAGG [r6_768_JUSTAS]"
  parameter-measured: "folding stability dG unfold"
  endpoint-value: "0.679 kcal/mol"
- ordered-residues: "SAGGSAGGSAGTEIKIPPEFPDLPVKVYPIEVTLLGKGKPKKVILNVATTPDAIIAVDPESAGGSAGGSAGG [r11_21_TrMRF]"
  parameter-measured: "folding stability dG unfold"
  endpoint-value: "-0.478 kcal/mol"
- ordered-residues: "SGLKDVISVTVTQSPTAGEVPVVTAYSPDGSRTFNLAPEETEAFLKALREAGYNVVVTDRVFVPVPAELGSA [r9_607_JUSTAS]"
  parameter-measured: "folding stability dG unfold"
  endpoint-value: "1.68 kcal/mol"

Query block: I would be grateful if you could share the reported folding stability dG unfold for SAGGPVLRLSFPTRTPDGELVRVEVVYDPETGALLVRVYSLTRPNRAVLYLVDPENPLTVLRAEELPLSAGG [r13_400_TrMRF] .
Result block: 2.47 kcal/mol

Query block: I would be grateful if you could share the reported folding stability dG unfold for SAGGSKIHIPIDPESGNFRIKVYPPDEPKEVSIQFKDPDDPEEFMDRAIEEANEYANNGYRVEIEPSAGGSA [r2_118_TrROS] .
Result block: -0.52 kcal/mol

Query block: I would be grateful if you could share the reported folding stability dG unfold for SAGGMLVVLLDDRPEVLPVNPERFETPEEAVEAVAREVAERFPDAGERRVVVVNEDGEEVATVELTPESAGG [r13_257_TrMRF] .
Result block: -1.08 kcal/mol

Query block: I would be grateful if you could share the reported folding stability dG unfold for SAGGSAMTITVTEETDPNTDRKTTTVSLSPGVSEEVLEELKAEAEKKGAKLTVYPEEGVVTVVTPESAGGSA [r15_542_JUSTAS] .
Result block: 0.0631 kcal/mol

----------
Entries annotated with measured folding stability dG unfold
assay-comment: folding stability dG unfold from trypsin proteolysis; higher = more stable
Response body: numeric value in kcal/mol, unit text excluded.

- ordered-residues: "SAGGWEIVGSITIEHPNRPIIFPVFRDPEEGNVWVSIYRMDPENGKWQPIGVVPFPKGDAEDALDDISAGGS [r8_423_TrROS]"
  folding stability dG unfold / kcal/mol: 1.03
- ordered-residues: "SAGGSAGGSAGGMTEYVPGEGKVLVTYPDGTTKVVPVDPATPEEFRAELEAAGVPEIKPLSAGGSAGGSAGG [r7_139_JUSTAS]"
  folding stability dG unfold / kcal/mol: 0.762
- ordered-residues: "SAGGSATPKDPDGKEWKPIAVIDIEEMRPETLKELLEENKGPIWIHPPGEGKPFWIPADEIEDMIDSAGGSA [r15_904_TrROS]"
  folding stability dG unfold / kcal/mol: 0.668
- ordered-residues: "SAGGMKKTVTITITEELPTETGEYKTKTVTTTLTVTPPPPEVTEEEKLREKALKENPNVSPDDPKALLSAGG [r13_136_JUSTAS]"
  folding stability dG unfold / kcal/mol: -0.948
- ordered-residues: "SAGGSAVPKSDPVIRIKVKYPSNPQVITVPRSEIVEMEVGPPENIMTIKNPKTGKEYPATLLEILASAGGSA [r15_495_JUSTAS]"
  folding stability dG unfold / kcal/mol: -0.531
- ordered-residues: "SAGGSAGGMKYLDVVLHPDTGATYSSLEEIKASSSGPFQIKTGDGKWIYLPVEELSSLPTPLASSAGGSAGG [r6_685_JUSTAS]"
  folding stability dG unfold / kcal/mol: 0.0571

Query block: I would be grateful if you could share the reported folding stability dG unfold for SAGGMPPEELEAASLEERIARVRAAGLETATVRRPDGSTLTIDLGEEGPVTITTTTPPGETTTATLPSAGGS [r8_51_JUSTAS] .
Result block: -1.04

Query block: I would be grateful if you could share the reported folding stability dG unfold for SAGGSAGGSIKVPKNSKVTVLYEKGGKKIEVSGIVDPKTGKILETDSLENLPDAKIVEIKVEDSAGGSAGGS [r12_6_TrMRF] .
Result block: -0.742

Query block: I would be grateful if you could share the reported folding stability dG unfold for EKALEAARELARKLAEELGVEVEVRVKKVSVLNENGELIAEVEVEITVRPLPPPVVEEEEVEEEEVEFEEES [r1_318_TrROS_Hall] .
Result block: 1.82

Query block: I would be grateful if you could share the reported folding stability dG unfold for SAGMKKEKPKETVTITLKNGKKIEIVKTDDSIKIFITDKNGKKRELTVKGLSLEEILKKLEELGFEVEPSAG [r5_613_TrROS_Hall] .
Result block: 0.776

Query block: I would be grateful if you could share the reported folding stability dG unfold for SAGGMIQIERDKDGYLRITIWVPGDPKEAEEIAENIIELLQDLGFDEVDIDYEPFDGGVMIEITVKVSAGGS [r8_113_TrROS] .
Result block: 2.9

Query block: I would be grateful if you could share the reported folding stability dG unfold for SAGGSAGGSAKPDPGAPYPWKIVEVVPIRIDMYFKFPGEPFKMDIEIPILVMVDPDNGKIFSAGGSAGGSAG [r3_391_TrROS] .
Result block: 2.3

Query block: I would be grateful if you could share the reported folding stability dG unfold for SITIKIPLKPGYPYALRIHFYNPNGKPREMDMNVTRKPDGEVEIPIKIPDKDIPPGQDIRIQSIEIYPMKSA [r9_359_TrROS] .
Result block: 1.5

Query block: I would be grateful if you could share the reported folding stability dG unfold for SAGGSAGGSAGGGPDAVRQFPPPVNLSVEVTSYTSPSSSLSNGKPEKSTFTTLNPTAGVSAGGSAGGSAGGS [r10_877_JUSTAS] .
Result block: 0.0381

----------
assay-comment: folding stability dG unfold (combined trypsin and chymotrypsin); higher = more stable
parameter-measured: folding stability dG unfold

Recorded results for 2 sequences are shown here.
- ordered-residues: "SAMVLKVEEEPFPPNAKREVKEIRKDPNSDNLFKVKIELEKSPDPSVTSAKVITIPPDGSKKVEEKVLESAG [r14_10_JUSTAS]"
  folding stability dG unfold: "0.508 kcal/mol"
- ordered-residues: "MEEEEKKKAETPEIPEEVAREKALEVARELGLEEIEEIEVLSASPEGYVTVRITLPTGGEVEITIPISELES [r1_435_JUSTAS]"
  folding stability dG unfold: "2.54 kcal/mol"

Next item in the queue.
Query block: I would be grateful if you could share the reported folding stability dG unfold for SAGGSAGGSKKAEELAKKLGLEVEIVKVEKKKDGSEVVIVKIKNKDGSELTLVVKDGKVELFPSAGGSAGGS [r12_279_TrROS_Hall] .
Result block: 2.24 kcal/mol

----------
assay-comment: folding stability dG unfold (combined trypsin and chymotrypsin); higher = more stable
The label depends only on folding stability dG unfold: Condition met if it is at least 2 kcal/mol, Condition not met if it is smaller.

- ordered-residues: "SAGGSMNPYSETITVNLPVPTPSGGSVVRPVTVPISIVYEDEKELEEALKKAKEEAEAAARKALGLESAGGS [r16_339_JUSTAS]"
  class-assignment: "Condition not met"
- ordered-residues: "SMSVEISVPPTNPGASPEEIAAALAAKGRPVEVVSVSEDPSTGTRTVTIAVRAPDGTLEETVVVNAPVGVSA [r9_879_JUSTAS]"
  class-assignment: "Condition not met"
- ordered-residues: "SAMTLTLEIELDGVRVRLEAELELVLNEDGSLELKLKLKIEVEPLPPPKEVEVEEEEEEVEEVEFLPEESAG [r14_341_TrROS_Hall]"
  class-assignment: "Condition met"
- ordered-residues: "SAGGSAGGSAGGKKKKVKKKVTITIKLSAEEVAKLLKDLYPEKNIKIEENEDGSLSVTFTSAGGSAGGSAGG [r7_670_TrROS_Hall]"
  class-assignment: "Condition met"
- ordered-residues: "SAGGSAGGSAEEVTVTVKIERTTEDGEKVEETITVTVPAEKLDELKKAAEEAGFTVVEVTPSAGGSAGGSAG [r3_453_TrROS_Hall]"
  class-assignment: "Condition met"
- ordered-residues: "SAGGMEVEITIVVPPGASLEEIEELARKLAEELGLSVENIKVTVIVVEPEEEEEEEEEKKLKEEEEKSAGGS [r16_240_TrROS_Hall]"
  class-assignment: "Condition met"

Now, please, on to the next sequence.
Query block: Quick check, folding stability dG unfold >= 2 kcal/mol? SAGGSAGGGGMMKTITIPLEELKAKLAKETGKPLTIEEIKEALKKEGIKLLSVDKEKGTITISESAGGSAGG [r6_767_JUSTAS]
Result block: Condition met
